experiment: Cytotoxicity on uninfected MDBK cells (neutral red); format: cell-based; conditions: cattle (bovine)
// reported CC50 at 3 days per item
REPORTED METRIC: CC50 at 3 days

- COMPOUND: "O=c1[nH]c(=O)n([C@@H]2O[C@H](CO)C[C@H]2O)cc1/C(Br)=C\\I [Compound 15c]"
  READING: "> 100 µM"
- COMPOUND: "O=c1[nH]c(=O)n([C@@H]2O[C@H](CO)[C@@H](O)[C@H]2O)cc1C#CBr [Compound 13b, 5-(2-bromoethynyl)-uridine]"
  READING: "> 100 µM"
- COMPOUND: "NC(=O)c1ncn([C@@H]2O[C@H](CO)[C@@H](O)[C@H]2O)n1 [Ribavirin, reference compound]"
  READING: "> 100 µM"

---

tested on: subgenomic HCV replicon BM4-5 in Huh7 cells; assay: Antiviral assay on HCV subgenomic replicon, Northern blot of (+)-strand HCV RNA; type: cell-based, Hepatitis C Virus; settings: Huh7 BM4-5 replicon, positive strand HCV RNA by Northern blot, three days treatment; read-out: IC50, anti-HCV activity, (+)-RNA
REPORTED METRIC: IC50 (µM)

- MOLECULE: "O=c1[nH]c(=O)n([C@@H]2O[C@H](CO)[C@@H](O)[C@H]2O)cc1/C(Cl)=C\\I [Compound 16b, (E)-5-(l-Chloro-2-iodovinyl)-uridine]"
  TEST TARGET: "subgenomic HCV replicon BM4-5 in Huh7 cells"
  REPORTED METRIC: "IC50"
  READING: 74.9

---

// reported pIC50 per item
system: subgenomic HCV replicon BM4-5 in Huh7 cells; assay: Antiviral assay on HCV subgenomic replicon, Northern blot of (+)-strand HCV RNA; assay type: cell-based, Hepatitis C Virus; details: Hepatitis C virus, 72 h; Huh7 BM4-5 replicon, positive strand HCV RNA by Northern blot, three days treatment; read-out: IC50, anti-HCV activity, (+)-RNA
pIC50: −log10 of the molar value.

- COMPOUND: "COc1c(C)c2c(c(O)c1C/C=C(\\C)CCC(=O)O)C(=O)OC2 [MPA, mycophenolic acid, reference compound]"
  TEST TARGET: "subgenomic HCV replicon BM4-5 in Huh7 cells"
  SIGN: "="
  pIC50: 4.40
- COMPOUND: "O=c1[nH]c(=O)n([C@H]2C[C@H](O)[C@@H](CO)O2)cc1/C(Br)=C\\I [Compound 15a]"
  TEST TARGET: "subgenomic HCV replicon BM4-5 in Huh7 cells"
  SIGN: "<"
  pIC50: 4.00
- COMPOUND: "O=c1[nH]c(=O)n([C@@H]2O[C@H](CO)[C@@H](O)[C@H]2O)cc1/C(Br)=C\\Br [Compound 17b, (E)-5-(1,2-Dibromovinyl)-uridine]"
  TEST TARGET: "subgenomic HCV replicon BM4-5 in Huh7 cells"
  SIGN: "<"
  pIC50: 3.70
- COMPOUND: "O=c1[nH]c(=O)n([C@H]2C[C@H](O)[C@@H](CO)O2)cc1/C(Cl)=C\\I [Compound 16a]"
  TEST TARGET: "subgenomic HCV replicon BM4-5 in Huh7 cells"
  SIGN: "="
  pIC50: 4.10
- COMPOUND: "O=c1[nH]c(=O)n([C@H]2C[C@H](O)[C@@H](CO)O2)cc1C#CBr [Compound 13a, 5-(2-Bromoethynyl)-2′-deoxyuridine]"
  TEST TARGET: "subgenomic HCV replicon BM4-5 in Huh7 cells"
  SIGN: "<"
  pIC50: 3.70
- COMPOUND: "O=c1[nH]c(=O)n([C@H]2C[C@H](O)[C@@H](CO)O2)cc1C#CI [Compound 12a, 5-(2-Iodoethynyl)-2′-deoxyuridine]"
  TEST TARGET: "subgenomic HCV replicon BM4-5 in Huh7 cells"
  SIGN: "="
  pIC50: 4.24
